src = patent US20180298070A1

Molecular target: T1, human GIPR (human, UniProt P48546)
T1 sequence: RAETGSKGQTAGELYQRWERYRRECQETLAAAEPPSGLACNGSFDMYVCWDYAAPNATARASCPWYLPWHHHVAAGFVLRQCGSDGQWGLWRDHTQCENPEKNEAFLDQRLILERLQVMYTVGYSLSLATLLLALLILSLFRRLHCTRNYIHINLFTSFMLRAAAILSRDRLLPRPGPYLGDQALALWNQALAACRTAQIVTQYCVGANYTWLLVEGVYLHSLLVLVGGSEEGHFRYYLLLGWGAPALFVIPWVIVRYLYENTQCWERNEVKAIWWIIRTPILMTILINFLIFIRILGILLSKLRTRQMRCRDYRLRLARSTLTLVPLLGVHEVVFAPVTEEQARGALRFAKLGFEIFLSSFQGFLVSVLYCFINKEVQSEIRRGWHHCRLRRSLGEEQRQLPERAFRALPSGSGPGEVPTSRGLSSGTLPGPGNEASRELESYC
Assay: [125I]GIP competition, human GIPR VLP
RECORDED_ENDPOINT: IC50 (nM)
Enter your answer as a number in nM; do not include the unit.

Here are 3 binders together with their reported answers.
YXEGTXISDYSIXLDRXHQXNFVNWXLAQRPSSGAPPPS (N-terminal methyl (Me-Tyr); Aib at 2, 13, 20; Iva at 6, 26; Lys(Heda-GGGGGG-) at 17; C-terminal NH2) [Compound 503]    8
YXEGTXISDYSIXLDRXAQXNFVNWXLAQRPSSGAPPPS (N-terminal methyl (Me-Tyr); Aib at 2, 13, 20; Iva at 6, 26; Lys(Oda-GGGGGG-) at 17; C-terminal NH2) [Compound 496]    10
YXEGTXISDYSIXXDRXHQXNFVNWXLAQRPSSGAPPPS (N-terminal methyl (Me-Tyr); Aib at 2, 13, 17, 20; Iva at 6, 26; Lys(Oda-GGGGGG-) at 14; C-terminal NH2) [Compound 484]    10

// below: IC50 requested for another binder
Please list IC50 recorded for the binder YXEGTXISDYSIXXDRXHQXNFVNWXLAQRPSSGAPPPS (N-terminal methyl (Me-Tyr); Aib at 2, 13, 17, 20; Iva at 6, 26; Lys(Eda-GGGGGG-) at 14; C-terminal NH2) [Compound 521]
20
